Tested on: left auricle of the guinea pig
Experiment: Functional refractory period of the left auricle, paired electrical stimulation (method of Govier)
Conditions: Cavia porcellus, Table 2; dose in each case 10^^-5 millimoles/liter; read-out: Antiarrhythmic Effect (Lengthening of the refractory period in percent)
Entries and their measured percent lengthening of refractory period at 0.01 µM follow.
READOUT_LABEL: percent lengthening of refractory period at 0.01 µM (%)

[[record]]
compound = "CCCN1CCN(C(c2ccccc2)c2ccccc2)CC1(C)Cc1ccc(OC)c(OC)c1 (centres unmarked)"
tested_system = "left auricle of the guinea pig"
units_text = "%"
value_reported = 51

[[record]]
compound = "COc1ccc(CC2(C)CN(C(c3ccccc3)c3ccc(Cl)cc3)CCN2CCO)cc1OC (centres unmarked)"
tested_system = "left auricle of the guinea pig"
units_text = "%"
value_reported = 55

[[record]]
compound = "CCCCN1CCN(C(c2ccccc2)c2ccccc2)CC1(C)Cc1ccc(OC)c(OC)c1 (centres unmarked)"
tested_system = "left auricle of the guinea pig"
units_text = "%"
value_reported = 31

[[record]]
compound = "COc1ccc(CC2(C)CN(C(c3ccccc3)c3ccc(Cl)cc3)CCN2)cc1OC (centres unmarked)"
tested_system = "left auricle of the guinea pig"
units_text = "%"
value_reported = 28

[[record]]
compound = "COc1ccc(CC2(C)CN(C(c3ccccc3)c3ccccc3)CCN2CCO)cc1OC (centres unmarked)"
tested_system = "left auricle of the guinea pig"
units_text = "%"
value_reported = 55

[[record]]
compound = "CC[C@H]1[C@@H]2C[C@H]3[C@@H]4N(C)c5ccccc5[C@]45C[C@@H]([C@@H]2[C@H]5O)N3[C@@H]1O [Ajmaline, reference compound]"
tested_system = "left auricle of the guinea pig"
units_text = "%"
value_reported = 14

[[record]]
compound = "CCN1CCN(C(c2ccccc2)c2ccccc2)CC1(C)Cc1ccc(OC)c(OC)c1 (centres unmarked)"
tested_system = "left auricle of the guinea pig"
units_text = "%"
value_reported = 48

[[record]]
compound = "COc1ccc(CC2(C)CN(C(c3ccccc3)c3ccccc3)CCN2)cc1OC (centres unmarked)"
tested_system = "left auricle of the guinea pig"
units_text = "%"
value_reported = 46


* * *

System: left auricle of the guinea pig
Experiment: Functional refractory period of the left auricle, paired electrical stimulation (method of Govier)
Settings: Table 2; dose in each case 10^^-5 millimoles/liter
Text: Evidence of the anti-arrhythmic effect of the new compounds is obtained in experimental animals by determination of the functional refractory period of the left auricle of the guinea pig with the aid of paired electrical stimulation employing the method of W. C. Govier, J. Pharmacol. Exp. Therap. 148, 100 - 105 (1965). […]
READOUT_LABEL: Antiarrhythmic Effect (Lengthening of the refractory period in percent) (%)

[[record]]
molecule = "CCN1CCN(C(c2ccccc2)c2ccccc2)CC1(C)Cc1ccc(OC)c(OC)c1 (stereo not drawn) [(D)-1-diphenylmethyl-3-methyl-3-(3,4-dimethoxybenzyl)-4-ethy]"
units_text = "%"
value_reported = 50

[[record]]
molecule = "COc1ccc(CC2(C)CN(C(c3ccccc3)c3ccccc3)CCN2CCO)cc1OC (stereo not drawn) [(D)-1-diphenylmethyl-3-methyl-3-(3,4-dimethoxybenzyl)-4-hydr]"
units_text = "%"
value_reported = 72

[[record]]
molecule = "COc1ccc(CC2(C)CN(C(c3ccccc3)c3ccccc3)CCN2)cc1OC (stereo not drawn) [(D)-1-diphenylmethyl-3-methyl-3-(3,4-dimethoxybenzyl)-pipera]"
units_text = "%"
value_reported = 31

[[record]]
molecule = "COc1ccc(CC2(C)CN(C(c3ccccc3)c3ccccc3)CCN2C)cc1OC (stereo not drawn) [(D)-1-diphenylmethyl-3-methyl-3-(3,4-dimethoxybenzyl)-4-meth]"
units_text = "%"
value_reported = 50

[[record]]
molecule = "COc1ccc(CC2(C)CN(C(c3ccccc3)c3ccccc3)CCN2C)cc1OC (stereo not drawn) [(L)-1-diphenylmethyl-3-methyl-3-(3,4-dimethoxybenzyl)-4-meth]"
units_text = "%"
value_reported = 73

[[record]]
molecule = "COc1ccc(CC2(C)CN(C(c3ccccc3)c3ccccc3)CCN2C)cc1OC (stereo not drawn) [1-diphenylmethyl-3-methyl-3-(3,4-dimethoxybenzyl)-4-methyl-p]"
units_text = "%"
value_reported = 64


The reported measurements were obtained from patent US3996360A.
